# relative viability per entry
- Tested on: NCI-H1993
- PROTOCOL: relative viability (nuclei count vs DMSO), 5 days (fraction); higher = more cells survive
- SETTINGS: first compound 0.4 µM
QUANTITY: relative viability

* Clc1ccc(Nc2nnc(Cc3ccncc3)c3ccccc23)cc1 [Vatalanib] + Cc1nc(NC(=O)N2CCC[C@H]2C(N)=O)sc1-c1ccnc(C(C)(C)C(F)(F)F)c1 [Alpelisib] (partner 2 µM) | 0.678
* COc1cc(N2CCC(C(N)=O)CC2)ccc1Nc1nc(N)c(Cl)c(Nc2ccccc2S(=O)(=O)C(C)C)n1 [HG-5-88-01] + Cc1nc(Nc2ncc(C(=O)Nc3c(C)cccc3Cl)s2)cc(N2CCN(CCO)CC2)n1 [Dasatinib] (partner 0.075 µM) | 0.502

###

- Tested on: HOP-62
- PROTOCOL: relative viability (nuclei count vs DMSO), 5 days (fraction); higher = more cells survive
- SETTINGS: first compound 0.1265 µM
QUANTITY: relative viability

• COc1cc(N2CCC(C(N)=O)CC2)ccc1Nc1nc(N)c(Cl)c(Nc2ccccc2S(=O)(=O)C(C)C)n1 [HG-5-88-01] + CC(=O)Nc1cccc(-n2c(=O)n(C3CC3)c(=O)c3c(Nc4ccc(I)cc4F)n(C)c(=O)c(C)c32)c1 [Trametinib] (partner 0.02 µM) = 0.411
• C[C@@H]1CN(CC(=O)Nc2ccc3c(c2)Cc2cccc(-c4cc(=O)cc(N5CCOCC5)o4)c2S3)C[C@H](C)O1 + Cc1nc(Nc2ncc(C(=O)Nc3c(C)cccc3Cl)s2)cc(N2CCN(CCO)CC2)n1 [Dasatinib] (partner 0.075 µM) = 0.57
• COc1cc(N2CCC(C(N)=O)CC2)ccc1Nc1nc(N)c(Cl)c(Nc2ccccc2S(=O)(=O)C(C)C)n1 [HG-5-88-01] + CS(=O)(=O)CCNCc1ccc(-c2ccc3ncnc(Nc4ccc(OCc5cccc(F)c5)c(Cl)c4)c3c2)o1 [Lapatinib] (partner 2 µM) = 1.1
• Clc1ccc(Nc2nnc(Cc3ccncc3)c3ccccc23)cc1 [Vatalanib] + Nc1nc2[nH]cc(CCc3ccc(C(=O)N[C@@H](CCC(=O)O)C(=O)O)cc3)c2c(=O)[nH]1 [Pemetrexed] (partner 0.2 µM) = 0.336
• COc1cc(N2CCC(C(N)=O)CC2)ccc1Nc1nc(N)c(Cl)c(Nc2ccccc2S(=O)(=O)C(C)C)n1 [HG-5-88-01] + Cc1nc(Nc2ncc(C(=O)Nc3c(C)cccc3Cl)s2)cc(N2CCN(CCO)CC2)n1 [Dasatinib] (partner 0.075 µM) = 0.606
• COc1cc(N2CCC(C(N)=O)CC2)ccc1Nc1nc(N)c(Cl)c(Nc2ccccc2S(=O)(=O)C(C)C)n1 [HG-5-88-01] + O=C(CCCCCCC(=O)Nc1ccccc1)NO [Vorinostat] (partner 1 µM) = 0.799
• C[C@@H]1CN(CC(=O)Nc2ccc3c(c2)Cc2cccc(-c4cc(=O)cc(N5CCOCC5)o4)c2S3)C[C@H](C)O1 + C[C@]1(O)C[C@@H](c2nc(-c3ccc4ccc(-c5ccccc5)nc4c3)c3c(N)nccn32)C1 [Linsitinib] (partner 1 µM) = 0.945
• Clc1ccc(Nc2nnc(Cc3ccncc3)c3ccccc23)cc1 [Vatalanib] + COc1cc2c(Oc3ccc(NC(=O)C4(C(=O)Nc5ccc(F)cc5)CC4)cc3F)ccnc2cc1OCCCN1CCOCC1 [Foretinib] (partner 0.25 µM) = 1.07
• C[C@@H]1CN(CC(=O)Nc2ccc3c(c2)Cc2cccc(-c4cc(=O)cc(N5CCOCC5)o4)c2S3)C[C@H](C)O1 + N=C(N)NC(=N)NCCc1ccccc1 [Phenformin] (partner 250 µM) = 0.689
• C[C@@H]1CN(CC(=O)Nc2ccc3c(c2)Cc2cccc(-c4cc(=O)cc(N5CCOCC5)o4)c2S3)C[C@H](C)O1 + Nc1nc2[nH]cc(CCc3ccc(C(=O)N[C@@H](CCC(=O)O)C(=O)O)cc3)c2c(=O)[nH]1 [Pemetrexed] (partner 0.2 µM) = 0.33
• C[C@@H]1CN(CC(=O)Nc2ccc3c(c2)Cc2cccc(-c4cc(=O)cc(N5CCOCC5)o4)c2S3)C[C@H](C)O1 + Nc1ncn([C@H]2C[C@H](O)[C@@H](CO)O2)c(=O)n1 [Decitabine] (partner 2 µM) = 0.202
• C[C@@H]1CN(CC(=O)Nc2ccc3c(c2)Cc2cccc(-c4cc(=O)cc(N5CCOCC5)o4)c2S3)C[C@H](C)O1 + NC(=O)Nc1cc(-c2cccc(F)c2)sc1C(=O)N[C@H]1CCCNC1 [AZD7762] (partner 0.2 µM) = 0.599

###

- Test system: NCI-H1993
- PROTOCOL: relative viability (nuclei count vs DMSO), 5 days (fraction); higher = more cells survive
- SETTINGS: first compound 2.53 µM
QUANTITY: relative viability

* CCCCCCCCCCCC1=C(O)C(=O)C=C(O)C1=O [Embelin] + COc1cc2c(Oc3ccc(NC(=O)C4(C(=O)Nc5ccc(F)cc5)CC4)cc3F)ccnc2cc1OCCCN1CCOCC1 [Foretinib] (partner 0.25 µM) | 0.876
* CCCCCCCCCCCC1=C(O)C(=O)C=C(O)C1=O [Embelin] + Nc1ncn([C@H]2C[C@H](O)[C@@H](CO)O2)c(=O)n1 [Decitabine] (partner 2 µM) | 0.627
* CCCCCCCCCCCC1=C(O)C(=O)C=C(O)C1=O [Embelin] + O=C(CCCCCCC(=O)Nc1ccccc1)NO [Vorinostat] (partner 1 µM) | 0.764

###

- System: HCC-366
- PROTOCOL: relative viability (nuclei count vs DMSO), 5 days (fraction); higher = more cells survive
- SETTINGS: first compound 4 µM
# relative viability per entry
QUANTITY: relative viability

• Clc1ccc(Nc2nnc(Cc3ccncc3)c3ccccc23)cc1 [Vatalanib] + C[C@]1(O)C[C@@H](c2nc(-c3ccc4ccc(-c5ccccc5)nc4c3)c3c(N)nccn32)C1 [Linsitinib] (partner 1 µM) = 0.609
• COc1cc(N2CCC(C(N)=O)CC2)ccc1Nc1nc(N)c(Cl)c(Nc2ccccc2S(=O)(=O)C(C)C)n1 [HG-5-88-01] + O=C(c1cc(Cc2n[nH]c(=O)c3ccccc23)ccc1F)N1CCN(C(=O)C2CC2)CC1 [Olaparib] (partner 8 µM) = 0.38
• COc1cc(N2CCC(C(N)=O)CC2)ccc1Nc1nc(N)c(Cl)c(Nc2ccccc2S(=O)(=O)C(C)C)n1 [HG-5-88-01] + CC(=O)Nc1cccc(-n2c(=O)n(C3CC3)c(=O)c3c(Nc4ccc(I)cc4F)n(C)c(=O)c(C)c32)c1 [Trametinib] (partner 0.02 µM) = 0.243
• COc1cc(N2CCC(C(N)=O)CC2)ccc1Nc1nc(N)c(Cl)c(Nc2ccccc2S(=O)(=O)C(C)C)n1 [HG-5-88-01] + C[C@]1(O)C[C@@H](c2nc(-c3ccc4ccc(-c5ccccc5)nc4c3)c3c(N)nccn32)C1 [Linsitinib] (partner 1 µM) = 0.912
• COc1cc(N2CCC(C(N)=O)CC2)ccc1Nc1nc(N)c(Cl)c(Nc2ccccc2S(=O)(=O)C(C)C)n1 [HG-5-88-01] + CS(=O)(=O)N1CCN(Cc2cc3nc(-c4cccc5[nH]ncc45)nc(N4CCOCC4)c3s2)CC1 [Pictilisib] (partner 1 µM) = 0.212

###

- Test system: EMC-BAC-2
- PROTOCOL: relative viability (nuclei count vs DMSO), 5 days (fraction); higher = more cells survive
- SETTINGS: first compound 4 µM
QUANTITY: relative viability

- Clc1ccc(Nc2nnc(Cc3ccncc3)c3ccccc23)cc1 [Vatalanib] + N=C(N)NC(=N)NCCc1ccccc1 [Phenformin] (partner 250 µM): 0.512
- C[C@@H]1CN(CC(=O)Nc2ccc3c(c2)Cc2cccc(-c4cc(=O)cc(N5CCOCC5)o4)c2S3)C[C@H](C)O1 + CS(=O)(=O)CCNCc1ccc(-c2ccc3ncnc(Nc4ccc(OCc5cccc(F)c5)c(Cl)c4)c3c2)o1 [Lapatinib] (partner 2 µM): 0.827
- Clc1ccc(Nc2nnc(Cc3ccncc3)c3ccccc23)cc1 [Vatalanib] + Cc1cc(Nc2cc(N3CCN(C)CC3)nc(Sc3ccc(NC(=O)C4CC4)cc3)n2)n[nH]1 [Tozasertib] (partner 0.1 µM): 0.305

###

- Test system: BEN
- PROTOCOL: relative viability (nuclei count vs DMSO), 5 days (fraction); higher = more cells survive
- SETTINGS: first compound 0.4 µM
Each record here notes measured relative viability.
QUANTITY: relative viability

- COc1cc(N2CCC(C(N)=O)CC2)ccc1Nc1nc(N)c(Cl)c(Nc2ccccc2S(=O)(=O)C(C)C)n1 [HG-5-88-01] + CS(=O)(=O)N1CCN(Cc2cc3nc(-c4cccc5[nH]ncc45)nc(N4CCOCC4)c3s2)CC1 [Pictilisib] (partner 1 µM): 0.544
- C[C@@H]1CN(CC(=O)Nc2ccc3c(c2)Cc2cccc(-c4cc(=O)cc(N5CCOCC5)o4)c2S3)C[C@H](C)O1 + CC(C)C[C@H](NC(=O)[C@H](Cc1ccccc1)NC(=O)c1cnccn1)B(O)O [Bortezomib] (partner 0.002 µM): 0.861
- COc1cc(N2CCC(C(N)=O)CC2)ccc1Nc1nc(N)c(Cl)c(Nc2ccccc2S(=O)(=O)C(C)C)n1 [HG-5-88-01] + CC1(C)CCC(c2ccc(Cl)cc2)=C(CN2CCN(c3ccc(C(=O)NS(=O)(=O)c4ccc(N[C@H](CCN5CCOCC5)CSc5ccccc5)c(S(=O)(=O)C(F)(F)F)c4)cc3)CC2)C1 [Navitoclax] (partner 0.5 µM): 0.0596
- COc1cc(N2CCC(C(N)=O)CC2)ccc1Nc1nc(N)c(Cl)c(Nc2ccccc2S(=O)(=O)C(C)C)n1 [HG-5-88-01] + Cc1nc(NC(=O)N2CCC[C@H]2C(N)=O)sc1-c1ccnc(C(C)(C)C(F)(F)F)c1 [Alpelisib] (partner 2 µM): 1.04
